- stated conditions: buffer; pH 7.4; 200.0 µM
measurement label: log10 of solubility kinetic (log10 of the value in µg/mL)
Heads up: the numbers are on a log10 scale; they represent solubility kinetic in µg/mL.

CN(Cc1ccc(F)cc1Cl)S(=O)(=O)c1cccs1	0.83
CCCCc1noc(-c2c(-c3ccccc3Cl)noc2C)n1	-0.22
O=c1sc(Nc2ccccc2)nc2ccccc12	0.81

Kindly note the recorded log10 of solubility kinetic for Cc1ccc(C)c(Nc2nc(-c3cccnc3)cs2)c1 , which is -0.05

Kindly note the recorded log10 of solubility kinetic for Cc1c(Cl)cccc1NC(=O)C1CCN(c2cnccn2)CC1 , which is 0.32

Kindly note the recorded log10 of solubility kinetic for COc1ccc(NC(=S)N2c3ccccc3CC2C)cc1OC (stereo not given) , which is 1.63

Kindly note the recorded log10 of solubility kinetic for N#C/C(=C\c1cccnc1)C(=O)Nc1ccc(S(N)(=O)=O)cc1 , which is 1.56

Kindly note the recorded log10 of solubility kinetic for COc1ccc(NC(=O)C2CC(c3ccccc3O)=NO2)cc1OC (stereo not given) , which is 0.18

Kindly note the recorded log10 of solubility kinetic for CC1Oc2ccccc2N(Cc2cccc(F)c2)C1=O (stereo not given) , which is 1.27

Kindly note the recorded log10 of solubility kinetic for COc1cc(-c2cc(C(=O)OCC(=O)NC3CC3)c3ccccc3n2)cc(OC)c1OC , which is 0.57

Kindly note the recorded log10 of solubility kinetic for CCCCOc1ccc(C2(C)NC(=O)NC2=O)cc1 (stereo not given) , which is 1.49

Kindly note the recorded log10 of solubility kinetic for NS(=O)(=O)c1ccc(NC(=O)COC(=O)Cc2c[nH]c3ccccc23)cc1 , which is 1.58

Kindly note the recorded log10 of solubility kinetic for Cc1cc(C)c(C#N)c(Nc2cccc(C)c2C)n1 , which is 0.00

Kindly note the recorded log10 of solubility kinetic for S=C(Nc1ccc(Br)cc1)N1CCN(c2ccccn2)CC1 , which is 0.32

====

- stated conditions: buffer; pH 7.4; 200.0 µM
measurement label: solubility kinetic (µg/mL)
Only the number, expressed in µg/mL, is required.

Field: example entries. Status: answers known.
N#Cc1ccc(CN2CCN(C(=O)CNS(=O)(=O)c3ccc4c(c3)OCCCO4)CC2)cc1	35.3
Cc1ccccc1-c1ccc(/C=C2/SC(N3CCOCC3)=NC2=O)o1	1.4
O=C(CN1C(=O)NC2(CCCC2)C1=O)Nc1cc(S(=O)(=O)N2CCCCC2)ccc1Cl	65.8
O=C(CCc1cccc(Cl)c1)N1CCCC(Nc2ccccc2)C1 (configuration not stated)	27.4
CC(=O)c1ccc(NC(=O)C(C)NCc2ccccc2Cl)cc1 (configuration not stated)	38.3

Kindly note the recorded solubility kinetic for Cc1ccc(NC(=S)NCc2ccc3c(c2)cc(C)n3C)c(C)c1 , which is 0.6

Kindly note the recorded solubility kinetic for CCOc1ccc(S(=O)(=O)Nc2ccc(C(=O)N3CCCC3)cc2)cc1 , which is 53.3

Kindly note the recorded solubility kinetic for CC(=O)N1CCc2cc(S(=O)(=O)NC3CCCCC3)ccc21 , which is 6.4

Kindly note the recorded solubility kinetic for CC(NC(=O)CCNC(=O)c1ccc(C(C)(C)C)cc1)c1ccccc1 (configuration not stated) , which is 17.1

====

- stated conditions: buffer; pH 7.4; 200.0 µM
measurement label: solubility kinetic (µg/mL)
Only the number, expressed in µg/mL, is required.

Field: example entries. Status: answers known.
Cc1ccc(Sc2cc(C)nc(-c3ccccn3)n2)cc1	36.8
COCCN(CC(=O)Nc1cccc(C)c1C)C(=O)C1(c2ccc(Cl)cc2)CCC1	33.8
CCOC(=O)/C(C#N)=C/c1c(Oc2cccc(C)c2)nc2ccccn2c1=O	0.7
Cc1cccc(S(=O)(=O)N2CCCc3ccccc32)c1	6.7
Cc1nc2nc(N)nc(OCc3ccccc3)c2nc1C	41.6
O=C(CN1C(=O)NC2(CCCCC2)C1=O)NCc1ccc2c(c1)OCO2	42.8
C#Cc1ccc(CN2CCN(CCCc3ccccc3)C(CCO)C2)cc1 (centres undefined)	36.9
COc1ccc(CN2CCc3c([nH]c4ccccc34)C2)cc1Br	9.8

Kindly note the recorded solubility kinetic for CNC(=S)Nc1cccc(S(=O)(=O)NC2=NCCC2)c1 , which is 45.7

Kindly note the recorded solubility kinetic for CCCN(CCO)C1CCN(CCc2ccccc2)CC1 , which is 27.4

Kindly note the recorded solubility kinetic for CC(C)CN1C(=O)C(=O)N(CC(=O)c2ccc[nH]2)C1=O , which is 40.7

Kindly note the recorded solubility kinetic for COCCNC(=O)CN1C(=O)NC2(CCOc3ccccc32)C1=O (centres undefined) , which is 42.9

Kindly note the recorded solubility kinetic for COc1cccc(OC)c1OCCOCCN1CCN(C)CC1 , which is 48.6

Kindly note the recorded solubility kinetic for Cc1ccc(SCC(=O)c2c(C)nc3ccccn23)cc1 , which is 2.6

Kindly note the recorded solubility kinetic for O=C(COC(=O)COc1ccccc1[N+](=O)[O-])Nc1ccc2c(c1)OCO2 , which is 51.5

Kindly note the recorded solubility kinetic for O=C(Cc1ccccc1)c1c[nH]c(C(=O)C(Cl)(Cl)Cl)c1 , which is 28.1

Kindly note the recorded solubility kinetic for COCCNCC(=O)N1c2ccccc2Sc2ccccc21 , which is 38.1

Kindly note the recorded solubility kinetic for CC(C(=O)N(C)C1CCCCC1)N1CCC(C(N)=O)CC1 (centres undefined) , which is 43.1

Kindly note the recorded solubility kinetic for N#C/C(=C\c1cccnc1)C(=O)Nc1ccc(Cl)cc1 , which is 5.7

Kindly note the recorded solubility kinetic for O=S(=O)(c1cccc(C(F)(F)F)c1)N1CCN(c2cnccn2)CC1 , which is 25.1

Kindly note the recorded solubility kinetic for Cl.Clc1cccc(OCCN2CCCC2)c1 , which is 37.2

Kindly note the recorded solubility kinetic for CCOC(=O)c1ccc(NC(=O)CN2C(=O)CN(C(C)=O)C2=S)cc1 , which is 51.8

====

- stated conditions: buffer; pH 7.4; 200.0 µM
# label = 1 (yes) if solubility kinetic >= 4 µg/mL else 0 (no)

O=C(Nc1ccccc1Cl)C1Cc2ccccc2O/C1=N\O (stereo not given)	1 (yes)
Cc1ccc(NC(=O)CCCN2C(=O)NC(C)(C)C2=O)cc1	1 (yes)

Lookup: Threshold query (solubility kinetic >= 4 µg/mL) on CSc1ncccc1C(=O)OCC(=O)c1ccccc1
Found: 0 (no)

Lookup: Threshold query (solubility kinetic >= 4 µg/mL) on CCOc1ccc(NC(=O)Nc2ccccc2SC)cc1
Found: 0 (no)

Lookup: Threshold query (solubility kinetic >= 4 µg/mL) on O=C(O)/C(=C\c1ccco1)NC(=O)c1ccco1
Found: 1 (yes)

Lookup: Threshold query (solubility kinetic >= 4 µg/mL) on O=C(NC(=S)NC1CCCCC1)c1ccc(Cl)cc1
Found: 0 (no)

====

- stated conditions: buffer; pH 7.4; 200.0 µM
The entries below are paired with their reported solubility kinetic.

N#Cc1ccccc1/C=C/C(=O)N1CCOCC1	> 36.3 µg/mL
Cc1ccc(NS(=O)(=O)c2c(C)[nH]c(=O)[nH]c2=O)c(C)c1	> 46.4 µg/mL
CCCn1c(C(O)c2ccc(C)cc2)nc2ccccc21 (stereo unspecified)	15.9 µg/mL
Cc1ccccc1NC(=O)CN1C(=O)CSc2ccccc21	3.6 µg/mL
CC(=O)Nc1ccc(S(=O)(=O)NCCC(=O)Nc2cc(C)ccn2)cc1	> 56.5 µg/mL

Switching to the query record.
Kindly note the recorded solubility kinetic for Cc1nc(N2CCC(C(N)=O)CC2)c2c(-c3cccs3)csc2n1 , which is > 53.8 µg/mL

====

- stated conditions: buffer; pH 7.4; 200.0 µM
The entries below are paired with their reported solubility kinetic.
Only the number, expressed in µg/mL, is required.

Cc1cccc(C)c1OCc1cc(C(=O)NC2CCC(O)CC2)no1 (stereo not given)	19.4
O=C(NCc1ccc(-n2cccc2)cc1)c1cccc(F)c1	1.7
COc1ccc(C(=O)NC2CCSc3ccccc32)cc1F (stereo not given)	2.9
CC1(C)CC(=O)N(c2cc(Cl)ccc2Cl)C(=O)C1	14.7
CCOC(=O)c1cc(=O)[nH]c2ccccc12	30.6
O=[N+]([O-])c1ccc(OCc2cnc(Cl)s2)c([N+](=O)[O-])c1	4.7
CN1Cc2c(N3CCOCC3)nc3sc(C#N)c(N)c3c2CC1(C)C	15
CC(C)COc1ccc(C(=S)N2CCCC2)cc1	21.2
CN1C(=O)c2cccc3c(N(C)C)ccc(c23)C1=O	5.9
O=C(/C=C/c1ccccc1)NCCc1c[nH]c2ccccc12	19.7

Kindly note the recorded solubility kinetic for CNS(=O)(=O)c1cc2c3c(cccc3c1)C(=O)NC2=O , which is 6.3

Kindly note the recorded solubility kinetic for O=C(Nc1cccc(S(=O)(=O)N2CCCC2)c1)c1cncc(Br)c1 , which is 60.4

====

- stated conditions: buffer; pH 7.4; 200.0 µM
# label = criterion met if solubility kinetic >= 0.03 mg/mL else criterion not met

Lookup: Threshold query (solubility kinetic >= 0.03 mg/mL) on CC(OC(=O)CCOc1ccccc1)C(=O)Nc1ccc(Cl)cn1 (stereo not given)
Found: criterion met

Lookup: Threshold query (solubility kinetic >= 0.03 mg/mL) on COc1cc(CC(=O)OCC(=O)N2CCCCC2)cc(OC)c1OC
Found: criterion met

Lookup: Threshold query (solubility kinetic >= 0.03 mg/mL) on O=[N+]([O-])c1ccc(CN2CC=C(c3ccccc3)CC2)cc1
Found: criterion not met

Lookup: Threshold query (solubility kinetic >= 0.03 mg/mL) on CC1CCCC(C)N1C(=O)COC(=O)c1ccc(Br)c(S(=O)(=O)N2CCOCC2)c1 (stereo not given)
Found: criterion met

Lookup: Threshold query (solubility kinetic >= 0.03 mg/mL) on COc1cc(C(=O)NC2CC(C)(C)NC(C)(C)C2)cc(OC)c1OC
Found: criterion met

Lookup: Threshold query (solubility kinetic >= 0.03 mg/mL) on COc1nc2ccccc2nc1N1CCN(Cc2ccc3c(c2)OCO3)CC1
Found: criterion not met

Lookup: Threshold query (solubility kinetic >= 0.03 mg/mL) on NC(=O)CSc1nc2ccccc2nc1SCC(N)=O
Found: criterion not met

Lookup: Threshold query (solubility kinetic >= 0.03 mg/mL) on CC1C(C#N)=C(N)OC2=C1C(=O)CC(c1ccccc1)C2 (stereo not given)
Found: criterion met

Lookup: Threshold query (solubility kinetic >= 0.03 mg/mL) on C/C(=N/NC(=O)c1ccncc1)c1ccccc1
Found: criterion met

Lookup: Threshold query (solubility kinetic >= 0.03 mg/mL) on COC(=O)c1ccc(C(=O)OC)c(NC(=O)c2cccnc2)c1
Found: criterion not met

Lookup: Threshold query (solubility kinetic >= 0.03 mg/mL) on COc1ccccc1N1Cc2ccc(OC)c(OC)c2C1=O
Found: criterion met

Lookup: Threshold query (solubility kinetic >= 0.03 mg/mL) on Cc1ccc(NC(=O)CN(C)C(=O)CSc2ccccc2F)cc1
Found: criterion not met

Lookup: Threshold query (solubility kinetic >= 0.03 mg/mL) on CNC(=S)NNC(=O)Cc1ccc(OC)cc1
Found: criterion met

Lookup: Threshold query (solubility kinetic >= 0.03 mg/mL) on COC(=O)c1ccsc1NS(=O)(=O)c1ccccc1
Found: criterion met

Lookup: Threshold query (solubility kinetic >= 0.03 mg/mL) on CCC(C)NC(=O)CN1C(=O)NC2(CCc3ccccc3C2)C1=O (stereo not given)
Found: criterion met

Lookup: Threshold query (solubility kinetic >= 0.03 mg/mL) on COc1cc(OC)c(C(=O)Nc2cccnc2)cc1OC
Found: criterion met

Where do these numbers come from? They come from PubChem BioAssay AID1996.
